Values compiled from the supplement of paper PMC10065799.

Target: Fyn (UniProt P06241)
Sequence (P06241 whole entry, looked up): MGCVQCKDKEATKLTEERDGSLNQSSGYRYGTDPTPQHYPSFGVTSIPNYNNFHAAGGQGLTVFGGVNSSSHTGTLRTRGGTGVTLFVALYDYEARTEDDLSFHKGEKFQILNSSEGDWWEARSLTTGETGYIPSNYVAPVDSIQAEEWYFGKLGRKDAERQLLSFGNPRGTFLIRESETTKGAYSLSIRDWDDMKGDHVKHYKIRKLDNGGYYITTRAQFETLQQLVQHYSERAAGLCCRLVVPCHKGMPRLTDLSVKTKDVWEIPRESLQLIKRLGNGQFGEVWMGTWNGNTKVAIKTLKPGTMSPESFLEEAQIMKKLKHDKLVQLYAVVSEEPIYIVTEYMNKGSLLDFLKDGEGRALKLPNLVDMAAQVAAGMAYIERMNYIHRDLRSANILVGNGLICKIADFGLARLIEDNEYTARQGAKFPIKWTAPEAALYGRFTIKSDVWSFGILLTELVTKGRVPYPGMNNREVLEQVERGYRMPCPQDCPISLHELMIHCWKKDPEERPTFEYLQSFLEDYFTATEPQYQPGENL
Experiment: phosphorylation enrichment, bacterial display (enrichment ratio); higher = better substrate or ligand; peptides without Tyr show the background
phosphorylation enrichment below 0.7 gives 0; phosphorylation enrichment at or above it gives 1.

HRDDGYMPMSP [IRS1_Y612_T608R] | 0
PFTDPYFDFEI [ZC3H18_Y371_A368T_YF] | 1
EGWQVYRLGAR [MISP_Y95] | 1

QUERY: Does EYDRLYEEYTR [PIK3R1_Y467] have a reported phosphorylation enrichment of at least 0.7?
RESULT: 1

QUERY: Does MKNDLYQTPLH [NFKB1_Y582_R578K] have a reported phosphorylation enrichment of at least 0.7?
RESULT: 1

QUERY: Does PTATSYNPNLA [GABRA1_Y375_T376N] have a reported phosphorylation enrichment of at least 0.7?
RESULT: 1

QUERY: Does SLLVVYPWTQR [HBB_Y36_R31S] have a reported phosphorylation enrichment of at least 0.7?
RESULT: 0

QUERY: Does ADFFDYGHGLS [KHDRBS3_Y304_YF] have a reported phosphorylation enrichment of at least 0.7?
RESULT: 0

QUERY: Does QFPDIYAREEV [CRX_Y67_V66I_YF] have a reported phosphorylation enrichment of at least 0.7?
RESULT: 1

QUERY: Does VYYYSYLLKNH [PTEN_Y180] have a reported phosphorylation enrichment of at least 0.7?
RESULT: 1

QUERY: Does INNIDYYKNTT [FGFR2_Y656_K659N] have a reported phosphorylation enrichment of at least 0.7?
RESULT: 0

QUERY: Does CGTPEYRAPEI [PRKACA_Y205_L206R] have a reported phosphorylation enrichment of at least 0.7?
RESULT: 0

QUERY: Does GISDEYHVIQH [GCDH_Y398_R402Q] have a reported phosphorylation enrichment of at least 0.7?
RESULT: 1

QUERY: Does VVLVSYVPSSQ [SH2B1_Y624] have a reported phosphorylation enrichment of at least 0.7?
RESULT: 0

----------
Molecular target: FGFR1 (UniProt P11362)
Sequence (P11362 whole entry, looked up): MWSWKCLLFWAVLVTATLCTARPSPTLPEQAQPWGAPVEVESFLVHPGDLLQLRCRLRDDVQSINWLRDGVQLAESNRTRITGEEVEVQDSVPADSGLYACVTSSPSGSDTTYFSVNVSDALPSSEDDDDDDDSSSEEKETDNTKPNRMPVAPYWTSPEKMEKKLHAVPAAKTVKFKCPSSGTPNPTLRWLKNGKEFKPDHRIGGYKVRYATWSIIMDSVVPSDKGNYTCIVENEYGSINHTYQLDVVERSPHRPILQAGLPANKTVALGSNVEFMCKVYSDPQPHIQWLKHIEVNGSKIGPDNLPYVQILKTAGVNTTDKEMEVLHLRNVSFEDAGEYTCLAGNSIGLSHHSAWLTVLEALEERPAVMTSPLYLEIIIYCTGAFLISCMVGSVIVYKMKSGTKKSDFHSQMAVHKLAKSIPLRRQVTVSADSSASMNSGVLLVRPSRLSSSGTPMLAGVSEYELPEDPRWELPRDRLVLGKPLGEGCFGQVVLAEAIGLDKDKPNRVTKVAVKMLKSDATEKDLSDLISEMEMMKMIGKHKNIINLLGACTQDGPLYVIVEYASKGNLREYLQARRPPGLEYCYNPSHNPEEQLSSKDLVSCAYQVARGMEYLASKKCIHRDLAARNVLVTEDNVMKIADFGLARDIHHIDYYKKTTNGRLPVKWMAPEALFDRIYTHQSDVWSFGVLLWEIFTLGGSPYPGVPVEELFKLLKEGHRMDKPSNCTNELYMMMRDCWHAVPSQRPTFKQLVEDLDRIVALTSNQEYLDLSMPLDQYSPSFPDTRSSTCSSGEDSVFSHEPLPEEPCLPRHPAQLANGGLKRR
Assay: phosphorylation enrichment, bacterial display (enrichment ratio); higher = better substrate or ligand; peptides without Tyr show the background
Exercise: state measured phosphorylation enrichment for each of the sequences provided.
Answers are plain numbers.

Solved cases (5 shown):
YYSSEYHCVGG [CTSC_Y345_Y347C] | 11.5
LTSKPYAFTAQ [NDUFS1_Y236_R241Q] | 0.445
EEGENYQKGEQ [CHGB_Y173_R178Q] | 0.637
RLASVYTKRCS [CPT2_Y508_P504L] | 0.4
GACGGYCSVLG [RAB18_Y202] | 0.435

Working through the 8 sequences below one at a time, give phosphorylation enrichment for each.
1. ITGNGYYFRVF [MYBPC3_Y1135_I1131T]
2. SSVKLYRVYCD [FGB_Y266_P265L]
3. GEDLSYGDVPP [IRS1_Y151]
4. NTILLYHIMAW [GPR143_Y157_S152N]
5. TIQMMYGCDVG [HLA-A_Y123_I121M]
6. LYSGDYYRIQG [DDR2_Y740]
7. KPGVNYFFQVS
8. MPIPMYDASQA [CARMIL1_Y637]

RESULT:
1. 0.41
2. 0.459
3. 0.588
4. 3.19
5. 0.561
6. 32.7
7. 0.85
8. 0.595

QUERY: Request the reported phosphorylation enrichment associated with LYSGDCYRIQG [DDR2_Y740_Y740C]
RESULT: 0.956

----------
Tested on: Fer (mouse)
Test: phosphorylation enrichment, bacterial display (enrichment ratio); higher = better substrate or ligand; peptides without Tyr show the background
Exercise: state measured phosphorylation enrichment for each of the sequences provided.
Give bare numbers.

EDASEYYENYI [PARP4_Y214_F215Y] | 0.995
YGEYRYRSVIK [CFTR_Y517_D513G] | 0.49

Working through the 6 sequences below one at a time, give phosphorylation enrichment for each.
1. YRQNGYIPGSN [PCDHGA1_Y895_V894G]
2. CGTPEYRAPEI [PRKACA_Y205_L206R]
3. ESDGAYIQRMQ [CCDC137_Y125_H127Q]
4. HSKGIYYVQLE [MGAT4B_Y262_Q257H]
5. QNTVDYFDLFG [PTPN11_Y62_G60V_YF]
6. PLFKIYVAELI [MRPL28_Y230]

RESULT:
1: 0.423; 2: 0.582; 3: 0.417; 4: 0.615; 5: 0.609; 6: 0.978

----------
Target: Grb2 SH2 (UniProt P62993)
Sequence (P62993 whole entry, looked up): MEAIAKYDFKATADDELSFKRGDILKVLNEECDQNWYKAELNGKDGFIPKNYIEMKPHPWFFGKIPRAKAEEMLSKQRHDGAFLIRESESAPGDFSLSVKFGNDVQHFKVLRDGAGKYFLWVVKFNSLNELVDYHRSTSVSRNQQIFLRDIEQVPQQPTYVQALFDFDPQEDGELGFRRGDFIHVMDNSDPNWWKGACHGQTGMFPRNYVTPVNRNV
Experiment: SH2 binding enrichment of the phosphorylated peptide, bacterial display (enrichment ratio); higher = better substrate or ligand; peptides without Tyr show the background
quantity: SH2 binding enrichment
One number for each entry.

Solved cases (2 shown):
VIESSYTSADG [DHCR7_Y382_C380S] | 0.894
RQNNSYTCYTA [SLC20A2_Y386_R382Q] | 0.739

Would you kindly look at the next entry?
QUERY: Request the reported SH2 binding enrichment associated with RHPEVYHHLGI [NVL_Y290_V295I]
RESULT: 1.09

----------
Target: Hck (UniProt P08631)
Sequence (P08631 whole entry, looked up): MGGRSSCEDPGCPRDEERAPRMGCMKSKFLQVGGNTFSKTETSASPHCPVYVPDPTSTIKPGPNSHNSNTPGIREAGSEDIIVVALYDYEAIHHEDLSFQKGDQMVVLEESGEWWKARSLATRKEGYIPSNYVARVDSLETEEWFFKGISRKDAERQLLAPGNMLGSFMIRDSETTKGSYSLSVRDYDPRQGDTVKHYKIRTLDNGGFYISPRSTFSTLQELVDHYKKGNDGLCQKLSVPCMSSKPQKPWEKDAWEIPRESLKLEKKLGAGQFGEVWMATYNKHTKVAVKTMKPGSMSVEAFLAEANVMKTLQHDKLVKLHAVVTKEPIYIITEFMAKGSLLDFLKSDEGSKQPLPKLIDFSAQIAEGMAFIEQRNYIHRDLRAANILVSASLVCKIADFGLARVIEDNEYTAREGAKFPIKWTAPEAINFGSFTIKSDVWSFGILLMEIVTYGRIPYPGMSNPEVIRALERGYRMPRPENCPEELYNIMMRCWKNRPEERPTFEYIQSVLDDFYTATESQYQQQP
Test: phosphorylation enrichment, bacterial display (enrichment ratio); higher = better substrate or ligand; peptides without Tyr show the background
phosphorylation enrichment below 0.5 gives not met; phosphorylation enrichment at or above it gives met.

Field: example entries. Status: answers known.
PQIVNYSPDCI [LDHB_Y128_K127N] | met
VCDSDYSASRW [LRP5_Y1552] | met
KKFPDYIQIAR [SGMS2_Y59_M64R_YF] | not met

QUERY: Does PSRKDYETYQP [CTNND2_Y1154] have a reported phosphorylation enrichment of at least 0.5?
RESULT: met

QUERY: Does HSGVSYYINLC [IGF2R_Y2024_N2020S] have a reported phosphorylation enrichment of at least 0.5?
RESULT: met

QUERY: Does EGQKIYIDDNN [PIP4K2A_Y246] have a reported phosphorylation enrichment of at least 0.5?
RESULT: met

QUERY: Does GADAIYDHVNE [UQCR10_Y44_I47V] have a reported phosphorylation enrichment of at least 0.5?
RESULT: met

QUERY: Does HFGCVYHGTLL [MET_Y1093] have a reported phosphorylation enrichment of at least 0.5?
RESULT: met

QUERY: Does GMEIVYVFVKK [DNAI2_Y5_YF] have a reported phosphorylation enrichment of at least 0.5?
RESULT: met

QUERY: Does INNIDYFKNTT [FGFR2_Y656_K659N_YF] have a reported phosphorylation enrichment of at least 0.5?
RESULT: not met

QUERY: Does PQAVTYATVKH [LILRB4_Y360_K362T] have a reported phosphorylation enrichment of at least 0.5?
RESULT: met

QUERY: Does VEFAKYGSLQG [RET_Y809_R813Q_YF] have a reported phosphorylation enrichment of at least 0.5?
RESULT: met

QUERY: Does AAVNGYVFGGG [ECHS1_Y137_A138V] have a reported phosphorylation enrichment of at least 0.5?
RESULT: not met

QUERY: Does RLLVVYPWNQR [HBB_Y36_T39N] have a reported phosphorylation enrichment of at least 0.5?
RESULT: not met

----------
Molecular target: FGFR1 (UniProt P11362)
Assay: phosphorylation enrichment, bacterial display (enrichment ratio); higher = better substrate or ligand; peptides without Tyr show the background
quantity: phosphorylation enrichment
Give bare numbers.

QKKPCYEIRWK [PDGFRB_Y562_R561C] | 0.914
RAILLYEFVGK [NATD1_Y45_V42I_YF] | 4.88
HRGCLYLAIEF [TEK_Y899_Y897C_YF] | 0.667
PKGTGCIKTEL [STAT1_Y701_Y701C] | 0.558
FSEVRYMKEPF [HIPK4_Y170_V171M_YF] | 0.451

Working through the 6 sequences below one at a time, give phosphorylation enrichment for each.
1. KNNDGYIDYAE [MCFD2_Y135]
2. QHVPDYRQNVF [PCDHGA1_Y890_YF]
3. KDHPDYKYPPR [SOX10_Y171_Q174P]
4. PHQTIYGALMI [FGF23_Y70_S71G]
5. SDVLSYGVTMW [ZAP70_Y525_W523L]
6. DWQQEYVLNES [TGM1_Y267_R264Q]

RESULT:
0.606
0.59
0.549
0.57
0.493
1.11

Working through the 2 sequences below one at a time, give phosphorylation enrichment for each.
1. INNIDYYKNTT [FGFR2_Y656_K659N]
2. KFDLMYAKHAF [TUBA1A_Y399_R402H]

RESULT:
1. 0.535
2. 0.397

----------
Biological target: c-Src SH2
Assay: SH2 binding enrichment of the phosphorylated peptide, bacterial display (enrichment ratio); higher = better substrate or ligand; peptides without Tyr show the background
Exercise: state measured SH2 binding enrichment for each of the sequences provided.
Answers are plain numbers.

Solved cases (6 shown):
VNFDDYTVNLG [GFPT1_Y367] | 0.408
RAILLYEFVGK [NATD1_Y45_V42I_YF] | 1.31
DLDLTSIYPNI [PTEN_Y27_Y27S] | 0.949
KDHPDYKYPPR [SOX10_Y171_Q174P] | 0.637
RKTAKYLLKGE [CDH5_Y82_N79T] | 0.461
EIHTQYEAMAS [GFAP_Y242_R239H] | 2.9

Working through the 2 sequences below one at a time, give SH2 binding enrichment for each.
1. HPHECYAKVFD [ALB_Y394_D389H]
2. FFHCTYKKRMI [CLEC12A_Y242_YF]

RESULT:
1: 3.07; 2: 0.944

Working through the 2 sequences below one at a time, give SH2 binding enrichment for each.
1. RGERPYGGGGG [FUS_Y526_R522G]
2. SDYYAYSPVRE [H6PD_Y449]

RESULT:
1. 0.661
2. 1.13

Working through the 4 sequences below one at a time, give SH2 binding enrichment for each.
1. QGIPRYHSQSP [FOXF1_Y331]
2. TLQVMYGCDVG [HLA-B_Y123_S121V]
3. SVTCTFSPALN [TP53_Y126_Y126F]
4. RRAKGYPINLF [ITGB2_Y125_D128N_YF]

RESULT:
1. 0.537
2. 0.515
3. 0.473
4. 0.572
